- Test system: Veronica persica
- Protocol Summary: Pre-emergence herbicidal effect
- Type: in vivo
- Assay Context: 80 g/ha, 3 weeks
Entries and their VERPE herbicidal activity in percent values follow.
Use % as the unit, but write only the number.

Answered cases to consult:
CC(=O)c1cnc(N[C@@H]2CCCc3ccccc32)nc1 [1.3] ... 100
CC(=O)c1cnc(N[C@@H]2CCc3ccccc32)nc1C [1.89] ... 80
O=C1CC(C(F)(F)F)Cc2nc(N[C@@H]3CCCc4ccccc43)ncc21 (some centres unmarked) [2.96] ... 100
Cc1ccc2c(c1)[C@H](Nc1ncc3c(n1)CCCC3=O)[C@@H](C)C2 [2.118] ... 100
CC(=O)c1cnc(N[C@@H]2CCCc3cc(F)ccc32)nc1C [1.88] ... 100
CC(=O)c1cnc(NC2CCOc3c(C)cccc32)nc1 (racemic) [1.7] ... 100
O=C1CC(c2ccc(F)cc2)Cc2nc(N[C@@H]3CCCc4ccccc43)ncc21 (some centres unmarked) [2.92] ... 100
CC1CC(=O)c2cnc(N[C@@H]3CCCc4ccccc43)nc2C1 (some centres unmarked) [2.26] ... 80

Okay, now this compound:
Problem: What value of VERPE herbicidal activity in percent on Veronica persica does CC(C)C1CC(=O)c2cnc(N[C@@H]3CCCc4ccccc43)nc2C1 (some centres unmarked) [2.102] have?
Solution: 100
